Test system: herbaceous plants
Assay: Spraying of herbicide solutions on 50×50 cm plots of land with herbaceous plants; deterioration of the vegetation observed
Format: in vivo
Settings: glyphosate 6 g/l + glycerol ether 0.9 g/l, 36 g of solution per m^2 (plot 2)
Can you tell me time after which deterioration began for the items I'm about to list?
Answers are plain numbers, in days.

{"columns": ["COMPOUND", "UNITS SYMBOL", "time after which deterioration began"],
 "data": [
  ["CCOCC(O)COCC", "days", 4]
]}

Quick one: give me time after which deterioration began for each item below, same order please.
1. CC(C)OCC(O)CO (stereo not shown)
2. CCCCC(CC)COCC(O)CO (stereo not shown)
3. CCCCCCCCCCOCC(O)CO (stereo not shown)
4. COCC(O)COC
5. CCCCCCOCC(O)CO (stereo not shown)
6. CCOCC(O)CO (stereo not shown)
7. CCCCOCC(O)CO (stereo not shown)
8. COCC(O)CO (stereo not shown)

1: 3; 2: 3; 3: 4; 4: 4; 5: 3; 6: 3; 7: 3; 8: 4

Data request, read-out time after which deterioration began, for CCCCCOCC(O)CO (stereo not shown)
3
